Where do the numbers come from? From ChEMBL document CHEMBL4052683.

The reader will find reported microsomal CLint at 1 µM values listed item by item below.
# Method Summary: Clearance in pooled rat liver microsomes at 1 uM in presence of NADPH by LC-MS/MS method
# Type: ADME, microsome
# Test Settings: read-out: CLH
Value Kind: microsomal CLint at 1 µM

{"Input Smiles": "N#Cc1cc(C(F)(F)F)ccc1N1CCOc2c1ccc(S(=O)(=O)Nc1nccs1)c2F", "Reported Measurement": "< 14 µL/min/mg"}
{"Input Smiles": "N#Cc1cc(C(F)(F)F)ccc1N1CCOc2cc(S(=O)(=O)Nc3nccs3)c(Cl)cc21", "Reported Measurement": "21 µL/min/mg"}
{"Input Smiles": "COc1cc(C(F)(F)F)ccc1N1CCOc2cc(S(=O)(=O)Nc3nccs3)ccc21", "Reported Measurement": "53 µL/min/mg"}
{"Input Smiles": "COc1cc(F)ccc1N1CCOc2cc(S(=O)(=O)Nc3nccs3)ccc21", "Reported Measurement": "> 399 µL/min/mg"}
{"Input Smiles": "N#Cc1cc(C(F)(F)F)ccc1N1CCOc2cc(S(=O)(=O)Nc3ccno3)ccc21", "Reported Measurement": "< 14 µL/min/mg"}
{"Input Smiles": "COc1ccccc1N1CCOc2cc(S(=O)(=O)Nc3nccs3)ccc21", "Reported Measurement": "297 µL/min/mg"}
{"Input Smiles": "N#Cc1cc(C(F)(F)F)ccc1N1CCOc2cc(S(=O)(=O)Nc3cscn3)ccc21", "Reported Measurement": "< 14 µL/min/mg"}
{"Input Smiles": "N#Cc1cc(C(F)(F)F)ccc1N1CCOc2cc(S(=O)(=O)Nc3nccs3)c(F)cc21", "Reported Measurement": "< 14 µL/min/mg"}
{"Input Smiles": "N#Cc1cc(C(F)(F)F)ccc1N1CCOc2cc(S(=O)(=O)Nc3ncns3)ccc21", "Reported Measurement": "34 µL/min/mg"}
{"Input Smiles": "N#Cc1cc(C(F)(F)F)ccc1N1CCOc2cc(S(=O)(=O)Nc3ccncn3)ccc21", "Reported Measurement": "< 14 µL/min/mg"}
{"Input Smiles": "N#Cc1cc(C(F)(F)F)ccc1N1CCOc2cc(S(=O)(=O)Nc3nccs3)ccc21", "Reported Measurement": "< 14 µL/min/mg"}
{"Input Smiles": "COc1cc(C#N)ccc1N1CCOc2cc(S(=O)(=O)Nc3nccs3)ccc21", "Reported Measurement": "22 µL/min/mg"}
{"Input Smiles": "N#Cc1cc(C(F)(F)F)ccc1N1CCOc2cc(S(=O)(=O)Nc3ncco3)ccc21", "Reported Measurement": "< 14 µL/min/mg"}
{"Input Smiles": "N#Cc1cc(C(F)(F)F)ccc1N1CCOc2cc(S(=O)(=O)Nc3nccs3)cc(F)c21", "Reported Measurement": "< 14 µL/min/mg"}

---

# Tested on: Rattus norvegicus
# Method Summary: Unbound clearance in rat at 0.5 mg/kg, iv by LC-MS/MS method
# Type: ADME, organism-based
# Test Settings: in vivo
hey, just use true if measured CL free is less than 700 mL/min/kg, otherwise false

{"Input Smiles": "O=S(=O)(Nc1ccncn1)c1ccc2c(-c3ccc(C(F)(F)F)cc3C3=CCNCC3)cccc2c1", "Label": "true"}
{"Input Smiles": "COc1cc(C(F)(F)F)ccc1N1CCOc2cc(S(=O)(=O)Nc3nccs3)ccc21", "Label": "true"}
{"Input Smiles": "COc1cc(C#N)ccc1N1CCOc2cc(S(=O)(=O)Nc3nccs3)ccc21", "Label": "false"}
{"Input Smiles": "N#Cc1cc(C(F)(F)F)ccc1N1CCOc2cc(S(=O)(=O)Nc3ccncn3)ccc21", "Label": "true"}
{"Input Smiles": "O=S(=O)(Nc1ccncn1)c1ccc2c(c1)OCCN2c1ccc(C(F)(F)F)cc1C1=CCNCC1", "Label": "true"}
{"Input Smiles": "N#Cc1cc(C(F)(F)F)ccc1N1CCOc2cc(S(=O)(=O)Nc3nccs3)ccc21", "Label": "true"}
{"Input Smiles": "N#Cc1cc(C(F)(F)F)ccc1N1CCOc2cc(S(=O)(=O)Nc3ncns3)ccc21", "Label": "false"}
{"Input Smiles": "N#Cc1cc(C(F)(F)F)ccc1N1CCOc2cc(S(=O)(=O)Nc3nccs3)c(F)cc21", "Label": "true"}

---

# Method Summary: AUC (infinity) in rat at 0.5 mg/kg, iv by LC-MS/MS method
# Format: ADME, organism-based
# Set-up: dose 0.5 mg/kg, time infinity, route intravenous
# Test Settings: in vivo
Value Kind: AUC(0-inf) (nM·h)

{"Input Smiles": "N#Cc1cc(C(F)(F)F)ccc1N1CCOc2cc(S(=O)(=O)Nc3nccs3)c(F)cc21", "Reported Measurement": 1800}

---

# System Under Test: Sodium channel protein type 5 subunit alpha (Homo sapiens, UniProt Q14524)
# Sequence (Q14524 whole entry): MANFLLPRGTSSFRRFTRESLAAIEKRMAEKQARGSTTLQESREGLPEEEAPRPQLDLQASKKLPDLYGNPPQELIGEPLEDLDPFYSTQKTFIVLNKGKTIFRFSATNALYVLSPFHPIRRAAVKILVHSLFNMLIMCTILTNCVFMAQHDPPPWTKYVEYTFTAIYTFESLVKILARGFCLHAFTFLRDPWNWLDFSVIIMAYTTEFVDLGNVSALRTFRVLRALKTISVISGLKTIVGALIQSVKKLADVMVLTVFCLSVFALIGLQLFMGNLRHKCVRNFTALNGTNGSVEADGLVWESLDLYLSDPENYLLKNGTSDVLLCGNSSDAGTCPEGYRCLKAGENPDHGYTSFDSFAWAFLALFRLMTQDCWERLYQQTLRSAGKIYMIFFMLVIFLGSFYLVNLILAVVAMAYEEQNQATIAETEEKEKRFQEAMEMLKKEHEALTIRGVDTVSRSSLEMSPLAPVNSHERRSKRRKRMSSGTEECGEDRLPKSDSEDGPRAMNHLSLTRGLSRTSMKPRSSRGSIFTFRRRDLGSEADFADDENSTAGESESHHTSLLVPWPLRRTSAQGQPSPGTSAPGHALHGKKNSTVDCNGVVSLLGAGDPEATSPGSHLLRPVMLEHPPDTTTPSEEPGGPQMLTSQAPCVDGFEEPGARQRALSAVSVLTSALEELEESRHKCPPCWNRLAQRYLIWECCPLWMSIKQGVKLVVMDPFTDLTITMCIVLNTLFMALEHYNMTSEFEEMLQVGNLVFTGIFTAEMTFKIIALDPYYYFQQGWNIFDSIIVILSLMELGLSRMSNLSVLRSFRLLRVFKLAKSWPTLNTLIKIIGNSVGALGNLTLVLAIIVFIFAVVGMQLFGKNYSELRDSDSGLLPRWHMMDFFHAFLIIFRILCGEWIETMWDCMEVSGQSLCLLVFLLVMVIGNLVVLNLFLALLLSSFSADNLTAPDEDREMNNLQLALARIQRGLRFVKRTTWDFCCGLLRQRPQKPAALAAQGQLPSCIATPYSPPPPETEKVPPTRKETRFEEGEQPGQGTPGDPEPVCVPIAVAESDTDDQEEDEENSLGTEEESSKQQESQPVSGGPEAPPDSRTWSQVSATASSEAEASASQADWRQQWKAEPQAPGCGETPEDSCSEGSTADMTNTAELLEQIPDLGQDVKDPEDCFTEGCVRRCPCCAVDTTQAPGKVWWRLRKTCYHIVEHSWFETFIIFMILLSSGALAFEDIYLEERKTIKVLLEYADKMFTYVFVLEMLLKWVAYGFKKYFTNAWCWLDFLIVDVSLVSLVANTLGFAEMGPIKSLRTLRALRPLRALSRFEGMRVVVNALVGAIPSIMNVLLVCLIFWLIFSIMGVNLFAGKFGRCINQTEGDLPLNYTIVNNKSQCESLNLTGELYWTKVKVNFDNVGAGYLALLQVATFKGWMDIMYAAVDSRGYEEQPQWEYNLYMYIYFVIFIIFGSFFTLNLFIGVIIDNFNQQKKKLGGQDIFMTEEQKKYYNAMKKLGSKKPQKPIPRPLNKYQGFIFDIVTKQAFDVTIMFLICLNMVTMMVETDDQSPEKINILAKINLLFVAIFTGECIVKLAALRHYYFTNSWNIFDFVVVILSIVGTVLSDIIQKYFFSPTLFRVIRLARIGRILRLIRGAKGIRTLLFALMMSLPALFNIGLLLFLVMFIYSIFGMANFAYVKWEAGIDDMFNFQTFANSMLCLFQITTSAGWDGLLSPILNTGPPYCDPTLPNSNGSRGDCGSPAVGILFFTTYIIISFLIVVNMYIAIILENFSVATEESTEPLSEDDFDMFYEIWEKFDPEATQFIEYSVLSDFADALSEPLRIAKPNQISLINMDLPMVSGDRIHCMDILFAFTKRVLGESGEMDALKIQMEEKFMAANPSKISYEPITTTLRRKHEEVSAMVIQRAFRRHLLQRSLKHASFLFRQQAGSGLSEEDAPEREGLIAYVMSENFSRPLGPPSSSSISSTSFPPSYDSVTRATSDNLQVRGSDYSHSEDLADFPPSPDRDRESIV
# Method Summary: Inhibition of human NaV1.5 expressed in […] cells at holding potential of -125 mV with test potentials to -10 mV by whole cell voltage clamp method
Value Kind: log10 IC50 (log10 of the value in nM)

{"Input Smiles": "N#Cc1cc(C(F)(F)F)ccc1N1CCOc2cc(S(=O)(=O)Nc3nccs3)ccc21", "log10 IC50": 3.18}
{"Input Smiles": "N#Cc1cc(C(F)(F)F)ccc1N1CCOc2cc(S(=O)(=O)Nc3nccs3)cc(F)c21", "log10 IC50": 2.81}
{"Input Smiles": "COc1cc(C#N)ccc1N1CCOc2cc(S(=O)(=O)Nc3nccs3)ccc21", "log10 IC50": 4.15}
{"Input Smiles": "N#Cc1cc(C(F)(F)F)ccc1N1CCOc2c1ccc(S(=O)(=O)Nc1nccs1)c2F", "log10 IC50": 3.32}
{"Input Smiles": "N#Cc1cc(C(F)(F)F)ccc1N1CCOc2cc(S(=O)(=O)Nc3ccncn3)ccc21", "log10 IC50": 3.66}

---

# Method Summary: Dissociation constant, pKa of the compound
# Format: physicochemical
# pKa per entry
Value Kind: pKa

{"Input Smiles": "N#Cc1cc(C(F)(F)F)ccc1N1CCOc2cc(S(=O)(=O)Nc3ccncn3)ccc21", "Value Kind": "pKa", "Reported Measurement": 5.8}
{"Input Smiles": "N#Cc1cc(C(F)(F)F)ccc1N1CCOc2cc(S(=O)(=O)Nc3nccs3)ccc21", "Value Kind": "pKa", "Reported Measurement": 7}
{"Input Smiles": "N#Cc1cc(C(F)(F)F)ccc1N1CCOc2cc(S(=O)(=O)Nc3ncns3)ccc21", "Value Kind": "pKa", "Reported Measurement": 3.8}

---

# Method Summary: Tmax in mouse at 30 mg/kg, po by LC-MS/MS method
# Format: ADME, organism-based
# Test Settings: in vivo
Value Kind: Tmax (h)

{"Input Smiles": "N#Cc1cc(C(F)(F)F)ccc1N1CCOc2cc(S(=O)(=O)Nc3nccs3)c(F)cc21", "Reported Measurement": 2}

---

# Method Summary: Unbound fraction in mouse plasma at 5 uM by ultracentrifugation and LC-MS/MS method
# Type: ADME, cell-free

{"Input Smiles": "N#Cc1cc(C(F)(F)F)ccc1N1CCOc2cc(S(=O)(=O)Nc3nccs3)c(F)cc21", "fraction unbound at 5 µM": 0.006}

---

# System Under Test: Sodium channel protein type 9 subunit alpha (Homo sapiens)
# Sequence (Q15858 whole entry): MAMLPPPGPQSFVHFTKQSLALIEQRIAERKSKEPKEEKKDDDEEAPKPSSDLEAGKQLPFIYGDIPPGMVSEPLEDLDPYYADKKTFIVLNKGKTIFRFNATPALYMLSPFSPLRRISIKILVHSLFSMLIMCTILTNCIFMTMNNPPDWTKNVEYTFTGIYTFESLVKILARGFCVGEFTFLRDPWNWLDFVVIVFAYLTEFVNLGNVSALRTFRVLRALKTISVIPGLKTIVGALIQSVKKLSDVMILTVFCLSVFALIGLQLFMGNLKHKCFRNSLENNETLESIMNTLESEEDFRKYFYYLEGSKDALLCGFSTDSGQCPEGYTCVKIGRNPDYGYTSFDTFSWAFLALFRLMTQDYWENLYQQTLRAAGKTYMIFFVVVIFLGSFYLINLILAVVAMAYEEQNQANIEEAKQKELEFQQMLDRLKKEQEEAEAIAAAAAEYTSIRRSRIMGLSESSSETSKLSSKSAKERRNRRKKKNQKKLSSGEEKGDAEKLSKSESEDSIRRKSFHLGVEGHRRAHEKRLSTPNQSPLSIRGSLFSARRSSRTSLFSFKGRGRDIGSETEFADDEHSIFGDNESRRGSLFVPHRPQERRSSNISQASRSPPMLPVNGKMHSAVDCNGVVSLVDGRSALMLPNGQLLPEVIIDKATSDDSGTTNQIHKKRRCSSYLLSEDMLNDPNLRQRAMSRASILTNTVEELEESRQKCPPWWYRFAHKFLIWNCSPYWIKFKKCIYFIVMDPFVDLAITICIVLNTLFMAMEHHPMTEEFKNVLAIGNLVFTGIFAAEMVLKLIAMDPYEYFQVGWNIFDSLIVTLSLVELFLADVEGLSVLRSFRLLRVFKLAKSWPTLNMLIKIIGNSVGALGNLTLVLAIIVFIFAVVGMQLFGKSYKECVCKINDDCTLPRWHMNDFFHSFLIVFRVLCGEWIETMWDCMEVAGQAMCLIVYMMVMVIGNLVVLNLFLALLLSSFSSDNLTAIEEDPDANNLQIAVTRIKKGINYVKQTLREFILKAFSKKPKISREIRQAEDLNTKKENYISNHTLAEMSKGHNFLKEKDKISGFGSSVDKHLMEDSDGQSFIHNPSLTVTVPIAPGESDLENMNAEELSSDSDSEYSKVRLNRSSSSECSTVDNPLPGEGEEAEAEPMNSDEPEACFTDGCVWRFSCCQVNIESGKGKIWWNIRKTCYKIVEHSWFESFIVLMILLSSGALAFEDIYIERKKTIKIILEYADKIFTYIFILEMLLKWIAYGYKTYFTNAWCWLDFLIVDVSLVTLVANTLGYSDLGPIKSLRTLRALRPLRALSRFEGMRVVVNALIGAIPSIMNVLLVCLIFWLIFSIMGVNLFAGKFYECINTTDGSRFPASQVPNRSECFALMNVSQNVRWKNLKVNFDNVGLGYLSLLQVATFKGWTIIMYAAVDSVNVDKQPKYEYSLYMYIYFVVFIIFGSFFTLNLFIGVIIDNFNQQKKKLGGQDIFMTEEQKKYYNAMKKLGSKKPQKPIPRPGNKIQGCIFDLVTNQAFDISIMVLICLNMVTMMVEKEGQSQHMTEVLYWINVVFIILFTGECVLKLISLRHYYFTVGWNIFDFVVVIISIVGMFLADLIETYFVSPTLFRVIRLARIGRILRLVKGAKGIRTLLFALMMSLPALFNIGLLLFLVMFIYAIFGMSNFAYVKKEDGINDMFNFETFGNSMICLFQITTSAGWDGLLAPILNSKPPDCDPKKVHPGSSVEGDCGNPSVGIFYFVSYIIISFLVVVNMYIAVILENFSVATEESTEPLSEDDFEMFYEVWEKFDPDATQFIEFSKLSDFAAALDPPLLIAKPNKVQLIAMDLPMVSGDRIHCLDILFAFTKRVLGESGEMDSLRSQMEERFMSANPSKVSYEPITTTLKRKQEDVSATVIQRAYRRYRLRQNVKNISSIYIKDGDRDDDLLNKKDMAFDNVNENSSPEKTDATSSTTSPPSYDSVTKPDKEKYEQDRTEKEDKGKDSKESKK
# Method Summary: Inhibition of human NaV1.7 expressed in HEK293 cells at holding potential of -125 mV with test potentials to -10 mV by whole cell voltage clamp method
# Format: cell-based
pIC50: −log10 of the molar value.
Value Kind: pIC50

{"Input Smiles": "O=S(=O)(Nc1ccncn1)c1ccc2c(-c3ccc(C(F)(F)F)cc3C3=CCNCC3)cccc2c1", "System Under Test": "Sodium channel protein type 9 subunit alpha (Homo sapiens)", "Reported Measurement": 7.05}
{"Input Smiles": "COc1cc(C#N)ccc1N1CCOc2cc(S(=O)(=O)Nc3nccs3)ccc21", "System Under Test": "Sodium channel protein type 9 subunit alpha (Homo sapiens)", "Reported Measurement": 6.60}
{"Input Smiles": "N#Cc1cc(C(F)(F)F)ccc1N1CCOc2cc(S(=O)(=O)Nc3nccs3)c(Cl)cc21", "System Under Test": "Sodium channel protein type 9 subunit alpha (Homo sapiens)", "Reported Measurement": 6.41}
{"Input Smiles": "N#Cc1cc(C(F)(F)F)ccc1N1CCOc2cc(S(=O)(=O)Nc3ncns3)ccc21", "System Under Test": "Sodium channel protein type 9 subunit alpha (Homo sapiens)", "Reported Measurement": 7.05}
{"Input Smiles": "N#Cc1cc(C(F)(F)F)ccc1N1CCOc2cc(S(=O)(=O)Nc3nccs3)c(F)cc21", "System Under Test": "Sodium channel protein type 9 subunit alpha (Homo sapiens)", "Reported Measurement": 6.85}
{"Input Smiles": "COc1cc(F)ccc1N1CCOc2cc(S(=O)(=O)Nc3nccs3)ccc21", "System Under Test": "Sodium channel protein type 9 subunit alpha (Homo sapiens)", "Reported Measurement": 6.55}

---

# Method Summary: Half life in rat at 10 mg/kg, po by LC-MS/MS method
# Format: ADME, organism-based
# Test Settings: in vivo

{"Input Smiles": "N#Cc1cc(C(F)(F)F)ccc1N1CCOc2cc(S(=O)(=O)Nc3nccs3)c(F)cc21", "half-life": "9.8 h"}
